Hi there, I'd appreciate the recorded composite z-score for every entry that follows.
# Test system: Human papillomavirus type 1a protein E7 (residues 44-93)
# ASSAY DETAILS: HPV1a E7 fragment binders on microarrays, primary screen, biochemical, small-molecule microarray, residues 44-93, 635 nm fluorescence (AID 1108);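 note: E7 fragment applied at 1 µg/mL in TBST for 1 h at 4 C; score combines spot fluorescence with its signal to noise ratio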
# SETTINGS: small-molecule microarray binding, fluorescence 635 nm; higher = more signal
Please state the value as a number alone, without comment.

For O=C1OCCC=C[C@H]2OC34C=CCN(Cc5ccccc5)C(=O)[C@H]3N(CCCCCCO)C(=O)[C@@H]4C12 (stereo partly drawn) on Human papillomavirus type 1a protein E7 (residues 44-93), measured composite z-score was 1.04

For COCCOC(=O)N1C(=O)[C@@]2(c3ccccc31)[C@H](C(=O)NC[C@H](O)c1ccccc1)[C@H]1C(=O)O[C@H](c3ccccc3)[C@H](c3ccccc3)N1[C@@H]2c1ccc(OCCO)cc1 on Human papillomavirus type 1a protein E7 (residues 44-93), measured composite z-score was 1.11

For C=CCOC(=O)[C@@H]1[C@H]2C(=O)O[C@H](c3ccccc3)[C@H](c3ccccc3)N2[C@H](c2ccc(OCCOC(=O)[C@@H]3C[C@@H]4C(=O)NCC(=O)N4[C@@H]3c3cccc(OCCO)c3)cc2)[C@@]12C(=O)Nc1ccc(I)cc12 on Human papillomavirus type 1a protein E7 (residues 44-93), measured composite z-score was 1.43
